Tested on: Aspergillus niger
Experimental Details: Antibacterial activity against Aspergillus niger NCIM 545 after 72 hrs by disc diffusion method
Type: functional
List of inhibition zone (IZ) values.
Response body: numeric value in mm, unit text excluded.

The cases that follow already have their inhibition zone (IZ) on record.
OC(Cn1cncn1)(Cn1cncn1)c1ccc(F)cc1F [FLUCONAZOLE]; 20
COc1cc(O)c(C(=O)/C=C/C=C(\Cl)c2ccc(Cl)cc2)c(OC)c1; 16
COc1ccc(/C(Cl)=C/C=C/C(=O)c2c(O)cc(OC)cc2OC)cc1; 16

Now for a further compound.
Query COc1cc(O)c(C(=O)/C=C/C=C(\Cl)c2ccccc2Cl)c(OC)c1 yields inhibition zone (IZ) of 16
